Test system: BDF1 mice, P388 leukemia ip, median survival T/C
Experiment notes: NCI In Vivo Anticancer Drug Screen. Data for tumor model P388 Leukemia (intraperitoneal) in B6D2F1 (BDF1) mice
Condition description: endpoint: median survival time; dose: 50.0 mg/kg/injection; schedule: Q04DX003 (ip); vehicle: saline with Tween-80
Toxic doses and inconclusive results are not listed. How the source made its calls: active means survival T/C of 150% or more; inactive means T/C below 125% in these data.
Mark one answer only. Choices: active, inactive

Smiles record: Cc1cc(=O)[nH]c2c1CCC2
Class assignment: inactive
--
Smiles record: Clc1ccc(OCc2sc3ccc(Cl)cc3c2CN2CCCCC2)cc1
Class assignment: inactive
--
Smiles record: COC(=O)c1ccccc1NC(=O)CCl
Class assignment: inactive
--
Smiles record: CSc1nc([N+](=O)[O-])c2cnccn12
Class assignment: inactive
--
Smiles record: CC1=C(C)Cc2c(c(OC(=O)c3ccccc3)cc(Cl)c2OC(=O)c2ccccc2)C1
Class assignment: inactive

Exercise: What was the test verdict on `CCCCCCCCCCOP(=S)(N1CC1)N1CC1` ?
Key: active

Exercise: Check the results log: what was the call for `CCOC(=O)/C=C/c1ccco1` ?
Key: inactive
